- Target: UniProt Q63563
- Experiment Summary: In vitro binding affinity to rodent KATP channels: SUR2A ([3H]P1075 / [3H]glibenclamide displacement, COS cell membranes)
- Test Parameters: rat SUR2A in COS cell membranes
Recorded measurements of pKi, one per entry
Reported Metric: pKi

Compound	Result
CCc1c(C(=O)NC2CCCCC2)nc(-c2ccc(C)n2C)n1-c1ccccc1	4.0
C[S+]([O-])c1c(C(=O)NN2CCCCC2)nc(-c2ccc(Cl)cc2Cl)n1-c1ccc(Cl)cc1 (centres unmarked)	4.9
CSc1c(C(=O)NC2CCCCC2)nc(-c2ccc(Cl)cc2Cl)n1-c1ccc(Cl)cc1	5.8
CCCCCc1nc(C(=O)NC23CC4CC(CC(C4)C2)C3)sc1-c1ccccc1	4.0
CCCCCc1nc(-c2ccc(Cl)cc2Cl)n(-c2ccc(Cl)cc2)c1C	5.3

----------
- Target: rat SUR2A (Rattus norvegicus)
- Sequence (Q63563 whole entry): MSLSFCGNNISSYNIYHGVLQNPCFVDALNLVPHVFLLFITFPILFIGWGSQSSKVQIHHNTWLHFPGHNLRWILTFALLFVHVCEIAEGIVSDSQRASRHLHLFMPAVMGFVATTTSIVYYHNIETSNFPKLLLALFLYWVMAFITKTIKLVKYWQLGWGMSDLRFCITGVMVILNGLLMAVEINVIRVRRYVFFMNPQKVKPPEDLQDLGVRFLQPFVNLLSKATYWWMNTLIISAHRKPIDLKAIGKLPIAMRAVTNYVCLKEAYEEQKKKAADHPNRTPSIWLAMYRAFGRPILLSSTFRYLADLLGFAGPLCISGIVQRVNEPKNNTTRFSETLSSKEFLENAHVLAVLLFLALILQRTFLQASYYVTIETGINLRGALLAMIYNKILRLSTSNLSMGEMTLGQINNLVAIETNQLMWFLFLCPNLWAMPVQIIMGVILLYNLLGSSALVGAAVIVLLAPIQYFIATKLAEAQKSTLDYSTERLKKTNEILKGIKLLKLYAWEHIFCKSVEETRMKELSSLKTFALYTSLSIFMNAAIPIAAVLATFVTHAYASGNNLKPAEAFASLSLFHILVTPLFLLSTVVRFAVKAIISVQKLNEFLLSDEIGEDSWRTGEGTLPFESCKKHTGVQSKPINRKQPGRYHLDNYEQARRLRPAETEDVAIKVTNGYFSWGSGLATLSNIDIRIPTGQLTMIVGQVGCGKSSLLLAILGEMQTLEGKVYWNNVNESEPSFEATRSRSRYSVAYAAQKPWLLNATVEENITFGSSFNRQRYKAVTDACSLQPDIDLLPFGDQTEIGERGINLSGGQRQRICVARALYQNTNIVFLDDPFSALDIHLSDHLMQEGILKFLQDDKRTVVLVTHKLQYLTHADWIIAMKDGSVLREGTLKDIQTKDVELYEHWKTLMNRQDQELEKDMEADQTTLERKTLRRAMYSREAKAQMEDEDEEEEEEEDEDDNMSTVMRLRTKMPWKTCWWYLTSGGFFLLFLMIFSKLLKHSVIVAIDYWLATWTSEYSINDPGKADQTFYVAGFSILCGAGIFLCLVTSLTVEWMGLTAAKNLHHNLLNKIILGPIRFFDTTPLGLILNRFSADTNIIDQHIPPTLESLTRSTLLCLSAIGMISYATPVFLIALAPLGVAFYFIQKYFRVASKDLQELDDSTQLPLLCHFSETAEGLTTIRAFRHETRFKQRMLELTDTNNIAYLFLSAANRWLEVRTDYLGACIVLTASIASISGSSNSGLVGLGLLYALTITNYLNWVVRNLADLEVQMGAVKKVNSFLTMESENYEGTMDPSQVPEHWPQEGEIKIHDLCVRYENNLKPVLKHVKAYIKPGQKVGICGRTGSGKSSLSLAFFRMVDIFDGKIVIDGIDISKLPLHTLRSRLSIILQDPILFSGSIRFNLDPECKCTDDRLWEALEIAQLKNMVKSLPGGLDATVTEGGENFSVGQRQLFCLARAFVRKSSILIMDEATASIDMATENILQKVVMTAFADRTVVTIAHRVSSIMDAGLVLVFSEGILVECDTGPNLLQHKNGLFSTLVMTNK
- Experiment Summary: In vitro binding affinity to rodent KATP channels: SUR2A ([3H]P1075 / [3H]glibenclamide displacement, COS cell membranes)
So basically: pKi at 5 or higher? That is criterion met. Lower than 5? That is criterion not met.

Molecule	Target	Label Class
CN(C)S(=O)(=O)N=C(NCCF)N1CC(c2ccccc2)C(c2ccc(Cl)cc2)=N1 (centres unmarked)	rat SUR2A (Rattus norvegicus)	criterion not met
O=C(NN1CCCCC1)c1nc(-c2ccc(Cl)cc2Cl)c(-c2ccc(Cl)cc2)s1	rat SUR2A (Rattus norvegicus)	criterion met
CN1CCC(CNC(=NS(=O)(=O)c2ccc(Cl)cc2)N2CC(c3ccccc3)C(c3ccc(Cl)cc3)=N2)C1 (centres unmarked)	rat SUR2A (Rattus norvegicus)	criterion not met
CCNCCN/C(=N\S(=O)(=O)c1ccc(Cl)cc1)N1CC(c2ccccc2)C(c2ccc(Cl)cc2)=N1 (centres unmarked)	rat SUR2A (Rattus norvegicus)	criterion met

----------
- Target: hamster SUR1 (Cricetus cricetus, UniProt Q09427)
- Construct: expressed in transfected cells; host or cells: COS-1 cells, transient (pcDNA vector)
- Sequence (Q09427 whole entry): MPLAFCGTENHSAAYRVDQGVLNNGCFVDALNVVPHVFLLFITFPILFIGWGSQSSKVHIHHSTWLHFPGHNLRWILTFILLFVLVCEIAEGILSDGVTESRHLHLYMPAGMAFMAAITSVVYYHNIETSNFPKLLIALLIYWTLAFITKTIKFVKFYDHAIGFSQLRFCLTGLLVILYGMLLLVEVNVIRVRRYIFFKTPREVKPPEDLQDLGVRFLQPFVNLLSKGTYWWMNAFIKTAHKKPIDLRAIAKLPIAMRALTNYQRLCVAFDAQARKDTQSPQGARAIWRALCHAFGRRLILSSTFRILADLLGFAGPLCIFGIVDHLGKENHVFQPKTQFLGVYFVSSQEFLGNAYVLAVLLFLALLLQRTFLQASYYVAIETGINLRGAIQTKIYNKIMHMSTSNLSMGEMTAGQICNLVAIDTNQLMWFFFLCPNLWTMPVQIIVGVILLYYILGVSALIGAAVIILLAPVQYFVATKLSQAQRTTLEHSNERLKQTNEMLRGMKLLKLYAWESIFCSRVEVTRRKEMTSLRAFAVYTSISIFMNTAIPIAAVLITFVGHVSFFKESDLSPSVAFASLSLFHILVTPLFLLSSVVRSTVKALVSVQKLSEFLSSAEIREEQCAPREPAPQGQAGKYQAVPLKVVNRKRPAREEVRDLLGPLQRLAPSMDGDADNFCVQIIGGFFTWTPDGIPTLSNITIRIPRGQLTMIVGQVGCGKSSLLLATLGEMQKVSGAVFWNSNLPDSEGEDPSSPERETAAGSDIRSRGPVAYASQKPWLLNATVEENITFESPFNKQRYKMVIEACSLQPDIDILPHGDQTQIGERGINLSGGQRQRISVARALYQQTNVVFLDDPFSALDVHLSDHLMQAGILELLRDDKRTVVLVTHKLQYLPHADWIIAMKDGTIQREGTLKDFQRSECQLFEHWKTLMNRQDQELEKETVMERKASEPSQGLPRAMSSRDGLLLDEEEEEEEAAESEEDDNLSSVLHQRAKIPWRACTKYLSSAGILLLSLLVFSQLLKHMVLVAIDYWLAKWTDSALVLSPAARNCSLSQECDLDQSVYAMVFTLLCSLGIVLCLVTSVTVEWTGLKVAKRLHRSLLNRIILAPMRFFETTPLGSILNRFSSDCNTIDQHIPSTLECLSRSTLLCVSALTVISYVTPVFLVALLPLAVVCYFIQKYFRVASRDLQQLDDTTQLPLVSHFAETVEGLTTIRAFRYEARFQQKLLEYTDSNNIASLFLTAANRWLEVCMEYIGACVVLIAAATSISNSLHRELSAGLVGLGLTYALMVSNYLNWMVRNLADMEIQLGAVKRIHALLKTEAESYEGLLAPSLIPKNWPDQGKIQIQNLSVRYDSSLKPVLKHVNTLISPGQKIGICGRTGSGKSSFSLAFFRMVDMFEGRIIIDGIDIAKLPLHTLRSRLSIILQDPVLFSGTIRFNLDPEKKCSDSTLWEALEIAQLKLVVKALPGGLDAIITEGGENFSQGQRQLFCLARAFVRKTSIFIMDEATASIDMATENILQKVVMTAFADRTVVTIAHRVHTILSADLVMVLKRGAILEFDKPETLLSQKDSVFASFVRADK
- Experiment Summary: In vitro binding affinity to rodent KATP channels: SUR1 ([3H]glibenclamide displacement, COS cell membranes)

Molecule	Ki (µM)
CCc1c(C(=O)NC2CCCCC2)nc(-c2ncccc2C)n1-c1ccc(Cl)cc1	100
CCCCCCC(C)(C)c1cc(OC)c(C2C=C(CO)[C@H]3C[C@@H]2C3(C)C)c(OC)c1 (stereo in doubt) [HU308, reference compound]	0.398

----------
- Target: human cannabinoid CB2 receptor (Homo sapiens, UniProt P34972)
- Sequence (P34972 whole entry): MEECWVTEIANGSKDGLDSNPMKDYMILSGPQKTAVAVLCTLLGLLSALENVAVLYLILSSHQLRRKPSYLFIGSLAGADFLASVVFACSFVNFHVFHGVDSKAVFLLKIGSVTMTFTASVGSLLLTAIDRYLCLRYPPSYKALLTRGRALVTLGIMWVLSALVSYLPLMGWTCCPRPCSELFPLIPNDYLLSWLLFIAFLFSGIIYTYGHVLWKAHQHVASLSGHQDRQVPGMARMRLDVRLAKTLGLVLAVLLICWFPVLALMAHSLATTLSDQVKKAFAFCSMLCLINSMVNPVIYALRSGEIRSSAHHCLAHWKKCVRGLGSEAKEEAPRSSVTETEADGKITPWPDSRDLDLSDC
- Experiment Summary: biochemical
- Format: binding
Recorded measurements of Ki, one per entry
Reported Metric: Ki (nM)

Molecule	Result
CCc1c(C(=O)NC2CCCCC2)nc(-c2ncccc2C)n1-c1ccc(Cl)cc1	794
NC(=NS(=O)(=O)c1ccc(Cl)cc1)N1CC(c2ccccc2)C(c2ccc(Cl)cc2)=N1 (stereo not shown)	398
CCCCC/C=C\C/C=C\C/C=C\C/C=C\CCCCOC(CO)CO [Noladineether, reference compound]	251
C[C@H](NS(C)(=O)=O)c1ccc(S(=O)(=O)c2ccc(Cl)cc2S(=O)(=O)c2ccccc2F)cc1 [reference compound]	0.501
CCc1c(C(=O)NN2CCCCC2)nc(-c2ccccc2Cl)n1-c1ccc(Cl)cc1 [reference compound]	1000
CCc1c(C(=O)NN2CCCCC2)nc(-c2ccc(Cl)cc2Cl)n1-c1ccc(Cl)cc1	501
N/C(=N\S(=O)(=O)c1ccc(Cl)cc1)N1C[C@@H](c2ccccc2)C(c2ccc(Cl)cc2)=N1 (stereo in doubt)	158
